The values you see were collected from PubChem BioAssay.

Entries and their measured growth inhibition follow.
test: Restrictive medium S. cerevisiae growth inhibition, OD615, pilot screen of yeast lifespan reduction project, restrictive growth control (AID 706); settings: OD615, 48 h, at 10 µM, active compounds read high;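 note: modified DeaD lifespan yeast strain shifted to restrictive glucose medium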
Express the result in % but write the number alone.

Example results:
# Compound, growth inhibition (%)
data = [
    ("CCC/C(=C1/C(=O)CC(C)(C)C(C(=O)OC)C1=O)N1CCCC1 (stereo not drawn)", 5.2),
    ("COc1ccc(C)cc1NC(=O)c1cnc2scc(C)n2c1=O", -0.68),
]

Recorded growth inhibition (compound COc1ccc(C2C(C(=O)NCc3ccccn3)c3ccccc3C(=O)N2C)cc1OC (stereo not drawn) ): -0.835

Per the record, Cc1cccc(N2CCN(C(=O)C3CCCN(S(=O)(=O)c4cccc5cccnc45)C3)CC2)c1C (stereo not drawn) has growth inhibition of 12.1
